From: patent US20250340659A1

Molecular target: T1, canine OX40L, full length membrane form, expressed on HEK293 cells (canine)
T1 construct: also called OX40L expressing HEK; HEK OX40L cells
T1 chain: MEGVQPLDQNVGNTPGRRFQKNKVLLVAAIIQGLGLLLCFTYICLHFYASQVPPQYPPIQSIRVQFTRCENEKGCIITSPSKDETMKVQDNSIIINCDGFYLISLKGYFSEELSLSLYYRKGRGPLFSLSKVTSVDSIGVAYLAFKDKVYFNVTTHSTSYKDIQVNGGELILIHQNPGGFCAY
Assay: flow cytometry
// reported GEO mean OX40L expressing HEK for each item listed
Simply state the number, no unit and no words.

PMX033 (antibody, V domains shown, also called PMX33) VH: EVQLVESGGDLVKPGGSLRLSCVASGFTFSSYHMSWVRQAPGKGLQWVAYITSGGRTTSYADAVKGRFTISRDNAKNTLYLQMKSLRAEDTAVYYCASDLVLVLGGAEYWGQGTLVTVSS VL: SYELTQPPSVNVTLRETAHITCGGDSIGRKYVQWIQQNPGQAPVVIIYKDSNRPTGIPERFSGANSGNTATLTISGALAEDEADYYCQVGDSGSKAVFGGGTHLTVL yielded GEO mean OX40L expressing HEK of 1.46e+06

---
PMX034 (antibody, V domains shown, also called PMX34) VH: EVQLVESGGDLVKPGGSLRLSCVASGFTFSNYHMSWVRQAPGKGLQWVAYIVSGGSSTTYADAVKGRFTISRDNAKNTLYLQMTSLRAEDTAVYYCASDLVLLVGGADYWGQGTLVTVSS VL: SYELTQPPSVNVTLRETAHITCGGDSIGSKYVQWIQQNPGQAPVVIIYKDSNRPTGIPERFSGANSGNTATLTISGALAEDEADYYCQVGDSGTKAVFGGGTHLTVL yielded GEO mean OX40L expressing HEK of 1.39e+06
